The origin of these recorded values is BindingDB's records for doi:10.1021/jm0309203.

# study-system: Mu-type opioid receptor (Homo sapiens, UniProt P35372)
# Sequence (P35372 whole entry): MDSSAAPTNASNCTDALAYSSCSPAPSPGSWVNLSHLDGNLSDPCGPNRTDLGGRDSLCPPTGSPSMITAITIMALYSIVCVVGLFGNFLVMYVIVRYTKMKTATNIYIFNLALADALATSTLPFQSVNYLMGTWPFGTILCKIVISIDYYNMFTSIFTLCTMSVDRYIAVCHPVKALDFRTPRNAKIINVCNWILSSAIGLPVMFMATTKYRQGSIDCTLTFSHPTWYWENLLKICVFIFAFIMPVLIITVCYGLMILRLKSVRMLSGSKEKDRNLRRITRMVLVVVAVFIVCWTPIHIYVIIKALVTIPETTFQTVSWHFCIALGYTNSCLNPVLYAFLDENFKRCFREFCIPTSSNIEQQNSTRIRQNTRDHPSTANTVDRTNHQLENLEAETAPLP
# assay-text: Binding affinity against cloned human Opioid receptor mu 1 transfected into chinese hamster ovary cells using [3H]DAMGO as radioligand
pKi: −log10 of the molar value.

molecule: NC(=Nc1ccc2[nH]c3c(c2c1)C[C@@]1(O)C2Cc4ccc(O)c5c4[C@@]1(CCN2CC1CC1)[C@H]3O5)NCc1ccccc1
study-system: Mu-type opioid receptor (Homo sapiens, UniProt P35372)
pKi: 8.00
